Test system: TGFβ signal
Test: TGFβ signal inhibitory activity, (SBE)4-Luc reporter in A549 cells (Test Examples 1A and 1B)
Format: cell-based, human
Conditions: Homo sapiens, A549; 3 µM; compounds of Reference Examples (Test Example 1B); read-out: TGFβ inhibition rate, %
Procedure: Test Example 1A: TGFβ signal inhibitory activity (in vitro test) The compounds according to the present invention was evaluated for TGFβ signal inhibitory activity according to the method described in J. Boil .Chem., 273, 21145-21152 (1998). […] After the culture, the luciferase activity of the cells were measured by chemiluminescence (Steady Glo (trademark) luciferase assay system, available from Promega). […]
Quick reference: inhibition at 3 µM of the listed items.
Metric name: inhibition at 3 µM (%)

INSERT INTO assay_data (compound, target, numeric_readout) VALUES
  ('COc1cc2nccc(Oc3cc4cccnc4cc3OC)c2cc1OC [Compound r297]', 'TGFβ signal', 61),
  ('COc1cc2nccc(Oc3ccc(C)nc3-c3cccc(C(F)(F)F)c3)c2cc1OC [Compound r230]', 'TGFβ signal', 60),
  ('COc1cc2nccc(Oc3cc(C)c(C)nc3-c3ccc(C)cn3)c2cc1OC [Compound r272]', 'TGFβ signal', 98),
  ('COc1cc2nccc(Oc3cc(C)nc4ccc(F)cc34)c2cc1OC [Compound r308]', 'TGFβ signal', 21),
  ('COc1cc2nccc(Oc3cc(C)c(C)cc3/C(C)=N/OCc3ccccc3)c2cc1OC [r198]', 'TGFβ signal', 32),
  ('COc1cc2nccc(Oc3ccc(C)cc3C(=O)c3ccc(OCCN4CCCCC4)cc3)c2cc1OC [Compound r190]', 'TGFβ signal', 30),
  ('COc1cc2c(Oc3cc(C)c(C)nc3-c3nc(C)c(C)s3)ccnc2cc1OCC(O)CO (stereo not drawn) [Compound r464]', 'TGFβ signal', 97),
  ('COc1cc2c(Oc3cc4cccnc4nc3C)ccnc2cc1OCC(CO)CO [Compound r404]', 'TGFβ signal', 29),
  ('COc1cc2c(Oc3cc(C)c(C)nc3-c3cccc(C)n3)ccnc2cc1OCC(O)CO (stereo not drawn) [Compound r449]', 'TGFβ signal', 74),
  ('COc1cc2c(Oc3cc(C)c(C)cc3C(C)=O)ccnc2cc1OCCN1CCOCC1 [Compound r316]', 'TGFβ signal', 99),
  ('COc1cc2nccc(Oc3ccc(C)nc3-c3ccccc3O)c2cc1OC [Compound r226]', 'TGFβ signal', 60),
  ('COc1cc2c(Oc3cc(C)c(C)cc3C(C)=O)ccnc2cc1OCCCN1CCOCC1.Cl [Compound r320, hydrochloride]', 'TGFβ signal', 100),
  ('CCCc1ccc(Oc2ccnc3cc(OC)c(OC)cc23)c(C(C)=O)c1 [r173]', 'TGFβ signal', 83),
  ('COc1cc2nccc(Oc3ccc(C)nc3-c3cccc(NC(C)=O)c3)c2cc1OC [Compound r236]', 'TGFβ signal', 90),
  ('COc1cc2nccc(Nc3cnc4ccccc4c3)c2cc1OC [r418]', 'TGFβ signal', 46),
  ('COc1cc2nccc(Oc3cc4ccccc4nc3-c3ccc(F)cc3F)c2cc1OC [r286]', 'TGFβ signal', 93),
  ('COc1ccc(Oc2ccnc3cc(OC)c(OC)cc23)cn1 [Compound r207]', 'TGFβ signal', 77),
  ('COc1cc2c(Oc3cc(C)c(C)nc3-c3ccccc3)ccnc2cc1OCc1ccccc1 [Compound r331]', 'TGFβ signal', 73);
